target: AMPKα1β1γ1 (Homo sapiens, UniProt Q13131+Q9Y478); assay: AMPKα1β1γ1 biochemical assay (LabChip EZ Reader mobility shift); details: EC50 of Table 1; activation, normalized to DMSO vehicle control; read-out: Human AMPK AMPKα1β1γ1 EC50
Sequence (Q13131 whole entry): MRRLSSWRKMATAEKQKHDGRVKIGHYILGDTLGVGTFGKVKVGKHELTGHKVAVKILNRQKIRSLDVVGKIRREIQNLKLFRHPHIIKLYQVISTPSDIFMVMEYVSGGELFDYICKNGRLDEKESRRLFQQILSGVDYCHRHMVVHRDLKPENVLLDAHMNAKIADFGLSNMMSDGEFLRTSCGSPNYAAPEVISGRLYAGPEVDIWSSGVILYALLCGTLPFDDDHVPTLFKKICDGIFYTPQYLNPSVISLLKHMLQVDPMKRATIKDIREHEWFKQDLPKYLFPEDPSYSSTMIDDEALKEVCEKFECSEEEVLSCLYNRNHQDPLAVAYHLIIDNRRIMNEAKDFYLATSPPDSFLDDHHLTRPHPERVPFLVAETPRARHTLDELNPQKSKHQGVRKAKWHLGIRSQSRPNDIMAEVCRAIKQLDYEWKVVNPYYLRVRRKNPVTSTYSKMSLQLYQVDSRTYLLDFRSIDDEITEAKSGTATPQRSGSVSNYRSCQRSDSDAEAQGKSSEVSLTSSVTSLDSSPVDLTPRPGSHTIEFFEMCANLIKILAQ
Sequence (Q9Y478 whole entry): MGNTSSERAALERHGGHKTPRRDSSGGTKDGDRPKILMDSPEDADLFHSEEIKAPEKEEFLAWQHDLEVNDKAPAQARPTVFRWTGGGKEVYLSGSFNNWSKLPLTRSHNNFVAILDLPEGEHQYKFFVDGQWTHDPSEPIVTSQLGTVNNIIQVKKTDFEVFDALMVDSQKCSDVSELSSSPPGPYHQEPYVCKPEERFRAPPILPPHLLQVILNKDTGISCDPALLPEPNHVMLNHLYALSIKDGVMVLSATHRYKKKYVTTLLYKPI
Sequence (P54619 whole entry partner): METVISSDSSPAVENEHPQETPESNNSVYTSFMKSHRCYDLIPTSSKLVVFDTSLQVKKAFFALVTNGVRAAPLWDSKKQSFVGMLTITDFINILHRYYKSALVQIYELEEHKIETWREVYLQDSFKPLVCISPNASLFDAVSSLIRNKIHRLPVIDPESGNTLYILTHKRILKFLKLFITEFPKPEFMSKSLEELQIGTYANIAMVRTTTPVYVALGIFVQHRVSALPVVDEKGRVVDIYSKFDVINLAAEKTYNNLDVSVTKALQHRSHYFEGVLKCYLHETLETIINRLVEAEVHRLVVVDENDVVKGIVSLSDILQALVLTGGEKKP
pEC50: −log10 of the molar value.
Parameter pEC50: see the listing below.

>  <Compound>
COc1nc(N2CC3(CN(C(=O)OC(C)(C)C)C3)C2)ccc1-c1cc2c(C(=O)O)c[nH]c2cc1Cl [Example 6]

>  <Experimental target>
AMPKα1β1γ1 (Homo sapiens, UniProt Q13131+Q9Y478)

>  <pEC50>
7.00 to 7.30

$$$$
>  <Compound>
COc1nc(N2CC3(CCC3O)C2)ccc1-c1cc2c(C(=O)O)c[nH]c2cc1Cl (racemic) [Example 25]

>  <Experimental target>
AMPKα1β1γ1 (Homo sapiens, UniProt Q13131+Q9Y478)

>  <pEC50>
7.00 to 7.30

$$$$
>  <Compound>
COc1nc(N2CC3(CNC3)C2)ccc1-c1cc2c(C(=O)O)c[nH]c2cc1Cl [Example 11]

>  <Experimental target>
AMPKα1β1γ1 (Homo sapiens, UniProt Q13131+Q9Y478)

>  <pEC50>
7.00 to 7.30

$$$$
>  <Compound>
COc1nc(N2CC3(CC(O)C3)C2)ccc1-c1cc2c(C(=O)O)c[nH]c2cc1Cl [Example 4]

>  <Experimental target>
AMPKα1β1γ1 (Homo sapiens, UniProt Q13131+Q9Y478)

>  <pEC50>
≥ 7.30

$$$$
>  <Compound>
COc1nc(N2CC3(CCC(=O)N3)C2)ccc1-c1cc2c(C(=O)O)c[nH]c2cc1Cl [Example 17]

>  <Experimental target>
AMPKα1β1γ1 (Homo sapiens, UniProt Q13131+Q9Y478)

>  <pEC50>
7.00 to 7.30

$$$$

Exam item: Looking for the measured pEC50 of COc1nc(N2C[C@@H]3[C@@H](CO)[C@@H]3C2)ccc1-c1cc2c(C(=O)O)c[nH]c2cc1Cl [Example 3] , can you help?
Marked response: ≥ 7.30

Exam item: Check COc1nc(N2CC3COC(C3)C2)ccc1-c1cc2c(C(=O)O)c[nH]c2cc1Cl (racemic) [Example 20] too.
Marked response: 7.00 to 7.30

Exam item: Same question, COc1nc(N2CC3(COC3)C2)ccc1-c1cc2c(C(=O)O)c[nH]c2cc1Cl [Example 1] this time
Marked response: ≥ 7.30

###

target: AMPKα1β1γ1 (Homo sapiens, UniProt Q13131+Q9Y478); experiment: AMPKα1β1γ1 biochemical assay (LabChip EZ Reader mobility shift); conditions: EC50 of Table 1; activation, normalized to DMSO vehicle control; read-out: Human AMPK AMPKα1β1γ1 EC50
pEC50: −log10 of the molar value.
Reported pEC50 values for a set of molecules

Worked set:
>  <Molecule>
COc1nc(N2CC3(CC(=O)N(C)C3)C2)ccc1-c1cc2c(C(=O)O)c[nH]c2cc1Cl [Example 22]

>  <Experimental target>
AMPKα1β1γ1 (Homo sapiens, UniProt Q13131+Q9Y478)

>  <pEC50>
≥ 7.30

$$$$
>  <Molecule>
COc1nc(N2CC3CC3(C#N)C2)ccc1-c1cc2c(C(=O)O)c[nH]c2cc1Cl (racemic) [Example 15]

>  <Experimental target>
AMPKα1β1γ1 (Homo sapiens, UniProt Q13131+Q9Y478)

>  <pEC50>
7.00 to 7.30

$$$$

Exam item: Kindly state the measured pEC50 obtained for COc1nc(N2CC3(CCCO3)C2)ccc1-c1cc2c(C(=O)O)c[nH]c2cc1Cl [Example 8] with AMPKα1β1γ1 (Homo sapiens, UniProt Q13131+Q9Y478).
Marked response: ≥ 7.30
